Cited source for all entries: patent US20170145113A1

# experimental target: T1, His-tagged human HtrA1 protease domain (human, UniProt Q92743 161-367)
# T1 construct: His-tagged protease domain; also called huHtrA1-PD-His; huHtrA1-PD
# T1 sequence (Q92743 other isoform, or with tags, fused parts or gaps limits assumed): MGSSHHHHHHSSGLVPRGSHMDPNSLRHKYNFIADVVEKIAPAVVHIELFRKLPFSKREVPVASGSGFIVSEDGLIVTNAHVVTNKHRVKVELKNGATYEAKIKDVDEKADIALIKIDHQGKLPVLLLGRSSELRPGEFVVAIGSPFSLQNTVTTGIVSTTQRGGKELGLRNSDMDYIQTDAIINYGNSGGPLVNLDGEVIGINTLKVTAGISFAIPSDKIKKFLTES
# assay method text: BIACORE SPR, single-cycle kinetics; Fab analyte over captured human HtrA1
measurement kind: kon (M⁻¹ s⁻¹)
# number only, unit M⁻¹ s⁻¹ dropped from output

Query string: Provide only the value of recorded kon for SG (Fab, V domains shown, single member of the group m42; also called h15H6.v2 HC-D55S HC-G56 Fab) VH: EVQLVQSGAEVKKPGASVKVSCKASGYTFTDSEMHWVRQAPGQGLEWIGGVDPETSGAAYNQKFKGRATITRDTSTSTAYLELSSLRSEDTAVYYCTRGYDYDYALDYWGQGTLVTVSS VL: DIQMTQSPSSLSASVGDRVTITCRASSSVNFIHWYQQKPGKAPKPLISATSNLASGVPSRFSGSGSGTDFTLTISSLQPEDFATYYCQQWSSNPWTFGQGTKVEIK
Result string: 410000
